Biological target: T1, HEK293 cyno-NaPi2B-mCherry (Macaca fascicularis, UniProt A0A2K5UHY1)
T1 construct: full-length mCherry fusion stably expressed on HEK293 cells; also called cynomolgus full-length NaPi2b-mCherry on HEK293 cells
T1 sequence (target on cells): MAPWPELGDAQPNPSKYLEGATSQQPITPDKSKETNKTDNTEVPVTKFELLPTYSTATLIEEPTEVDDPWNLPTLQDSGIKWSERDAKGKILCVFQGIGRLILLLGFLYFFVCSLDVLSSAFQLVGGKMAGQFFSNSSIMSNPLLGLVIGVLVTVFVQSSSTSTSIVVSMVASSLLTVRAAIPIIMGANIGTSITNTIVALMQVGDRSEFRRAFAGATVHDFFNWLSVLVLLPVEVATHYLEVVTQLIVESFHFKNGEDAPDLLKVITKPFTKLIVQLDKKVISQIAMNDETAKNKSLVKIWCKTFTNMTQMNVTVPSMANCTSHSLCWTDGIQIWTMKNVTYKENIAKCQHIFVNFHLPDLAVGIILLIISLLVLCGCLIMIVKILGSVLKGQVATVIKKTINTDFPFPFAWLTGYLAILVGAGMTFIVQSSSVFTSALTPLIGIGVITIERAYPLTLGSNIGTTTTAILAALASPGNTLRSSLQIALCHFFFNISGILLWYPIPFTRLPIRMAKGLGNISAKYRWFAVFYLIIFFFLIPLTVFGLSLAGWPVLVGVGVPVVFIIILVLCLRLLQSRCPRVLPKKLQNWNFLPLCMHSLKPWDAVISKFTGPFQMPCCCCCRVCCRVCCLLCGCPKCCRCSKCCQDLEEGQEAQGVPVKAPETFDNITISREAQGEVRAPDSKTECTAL
Test: flow cytometry on HEK293 cells stably expressing cynomolgus full-length NaPi2b-mCherry, Alexa-dye anti-human IgG H+L secondary antibody, MFI ratio, one-site specific binding fit; the Kd table prints no unit, the concentration axis is in nM
METRIC: Kd (nM)
Record the value in nM, omitting the unit from your answer.

Some entries whose results are on file:
AV-21 antibody (antibody, human IgG1, kappa, L234A L235A, V domains shown) VH: EVQLVQSGAEVVKPGASVKMSCKASGYTFTGQIIHWVKQAPGQGLEWIGAISPGNSGTSYKQKFRGRATLTADTSTSTVYMELSSLRSEDSAVYYCARGETARATFAYWGQGTLVTVSS VL: DIQMTQSPSSLSASVGDRVTITCSASQDIGNFLNWYQQKPGKTVKVLIYYTSSLYSGVPSRFSGSGSGTDYTLTISSLQPEDFATYYCQQYSKLPLTFGQGTKLELKR ... 1.5
AV-29 antibody (antibody, human IgG1, kappa, L234A L235A, V domains shown) VH: EVQLVQSGAEVVKPGASVKMSCKASGYTFTGYNILWVKQAPGQGLEWIGAIYPGNGGTSYKQKFRGRATITADTSTSTVYMELSSLRSEDSAVYYCARGEIARATFAYWGQGTLVTVSS VL: DIQMTQSPSSLSASVGDRVTITCSASQDIGNFLNWYQQKPGKTVKVLIYYASSLYSGVPSRFSGSGSGTDYTLTISSLQPEDFATYYCQQYSKLPLTFGQGTKLELKR ... 1.91
AV-15 antibody (antibody, human IgG1, kappa, L234A L235A, V domains shown) VH: EVQLVQSGAEVVKPGASVKMSCKASGYTFTGYNIHWVKQAPGQGLEWIGAIYPGNGDTSYKQKFRGRATLTADTSTSTVYMELSSLRSEDSAVYYCARGETARATFAYWGQGTLVTVSS VL: DIQMTQSPSSLSASVGDRVTITCSASQDIGKFLNWYQQKPGKTVKVLIYYSSSLYSGVPSRFSGSGSGTDYTLTISSLQPEDFATYYCQQYSKVPLTFGQGTKLELKR ... 2.7

We next turn to a different binder, shown below.
Ask: Please report the recorded Kd for AV-18 antibody (antibody, human IgG1, kappa, L234A L235A, V domains shown) VH: EVQLVQSGAEVVKPGASVKMSCKASGYTFTGYIIHWVKQAPGQGLEWIGAIYPGSGATSYKQKFRGRATLTADTSTSTVYMELSSLRSEDSAVYYCARGETARATFAYWGQGTLVTVSS VL: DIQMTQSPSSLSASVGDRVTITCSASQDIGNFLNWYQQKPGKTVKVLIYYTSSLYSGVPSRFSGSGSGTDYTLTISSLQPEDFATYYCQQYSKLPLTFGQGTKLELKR .
Reply: 1.61
